Target: LH-RH receptors (Rattus norvegicus, UniProt P30969)
Construct: from tissue; host or cells: rat pituitary membrane fraction (female Sprague Dawley)
Sequence (P30969 whole entry): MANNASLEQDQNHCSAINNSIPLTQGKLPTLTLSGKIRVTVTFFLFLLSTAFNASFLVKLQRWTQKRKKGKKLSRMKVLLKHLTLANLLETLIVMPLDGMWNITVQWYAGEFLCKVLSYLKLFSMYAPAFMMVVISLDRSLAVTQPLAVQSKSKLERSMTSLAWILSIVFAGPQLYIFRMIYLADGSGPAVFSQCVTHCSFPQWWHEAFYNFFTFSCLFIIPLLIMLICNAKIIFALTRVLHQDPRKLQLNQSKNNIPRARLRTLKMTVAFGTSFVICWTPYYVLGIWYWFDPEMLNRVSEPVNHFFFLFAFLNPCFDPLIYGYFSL
Assay: Affinity for LH-RH receptors: [125I]-buserelin binding to rat pituitary membranes
Settings: 2 hours at 4° C., 20 to 70 μM [125I]-buserelin, Ki from IC50 by Cheng-Prusoff, read-out: pKi (affinity for LH-RH receptors) (converted)
quantity: Ki
State the result as a value with its unit after it.

compound | Ki
CC(=O)N[C@H](Cc1ccc2ccccc2c1)C(=O)N[C@H](Cc1ccc(Cl)cc1)C(=O)N[C@H](Cc1cccnc1)C(=O)N[C@@H](CO)C(=O)N[C@@H](CCCCNC(C)C)C(=O)N1CCC[C@@]12CCN([C@@H](CC(C)(C)C)C(=O)N[C@@H](CCCNC(=N)N)C(=O)N1CCC[C@H]1C(=O)N[C@H](C)C(N)=O)C2=O [Example 27] | 0.0977 nM
CC(=O)N[C@H](Cc1ccc2ccccc2c1)C(=O)N[C@H](Cc1ccc(Cl)cc1)C(=O)N[C@H](Cc1cccnc1)C(=O)N[C@@H](CO)C(=O)N[C@@H](Cc1ccc(O)cc1)C(=O)N1CCC[C@@]12CCN([C@@H](CC(C)(C)C)C(=O)N[C@@H](CCCNC(=N)N)C(=O)N1CCC[C@H]1C(=O)N[C@H](C)C(N)=O)C2=O [Example 25] | 0.245 nM
CCNC(=O)[C@@H]1CCCN1C(=O)[C@H](CCCNC(=N)N)NC(=O)[C@H](CC(C)(C)C)N1CC[C@@]2(CCCN2C(=O)[C@H](Cc2ccc(O)cc2)NC(=O)[C@H](CO)NC(=O)[C@H](Cc2c[nH]c3ccccc23)NC(=O)[C@H](Cc2c[nH]cn2)NC(=O)[C@@H]2CCC(=O)N2)C1=O [Example 16, pGlu-His-Trp-Ser-Tyr-SPL-Npg-Arg-Pro-NEt] | 0.55 nM

Could you report Ki for every entry in the following list?
1. CC(C)C[C@@H](C(=O)N[C@@H](CCCNC(=N)N)C(=O)N1CCC[C@H]1C(=O)NCC(N)=O)N1CC[C@@]2(CCCN2C(=O)[C@H](Cc2ccc(O)cc2)NC(=O)[C@H](CO)NC(=O)[C@H](Cc2c[nH]c3ccccc23)NC(=O)[C@@H](Cc2ccccc2)NC(=O)[C@@H]2CCC(=O)N2)C1=O [Example 20]
2. CC(=O)N[C@H](Cc1ccc2ccccc2c1)C(=O)N[C@H](Cc1ccc(Cl)cc1)C(=O)N[C@H](Cc1cccnc1)C(=O)N[C@@H](CO)C(=O)N[C@@H](CCCCNC(=O)c1cccnc1)C(=O)N1CCC[C@@]12CCN([C@@H](CC(C)(C)C)C(=O)N[C@@H](CCCCNC(C)C)C(=O)N1CCC[C@H]1C(=O)N[C@H](C)C(N)=O)C2=O [Example 29]

Key:
1. 4.07 nM
2. 0.363 nM

Could you report Ki for every entry in the following list?
1. CC(C)C[C@@H](C(=O)N[C@@H](CCCNC(=N)N)C(=O)N1CCC[C@H]1C(=O)N[C@H](C)C(N)=O)N1CC[C@@]2(CCCN2C(=O)[C@H](Cc2ccc(O)cc2)NC(=O)[C@H](CO)NC(=O)[C@H](Cc2c[nH]c3ccccc23)NC(=O)[C@@H](Cc2ccccc2)NC(=O)[C@@H]2CCC(=O)N2)C1=O [Example 21]
2. CC(=O)N[C@H](Cc1ccc2ccccc2c1)C(=O)N[C@H](Cc1ccc(Cl)cc1)C(=O)N[C@H](Cc1cccnc1)C(=O)N[C@@H](CO)C(=O)N[C@@H](CCCCNC(=O)c1cccnc1)C(=O)N1CCC[C@@]12CCN([C@@H](CC(C)(C)C)C(=O)N[C@@H](CCCNC(=N)N)C(=O)N1CCC[C@H]1C(=O)N[C@H](C)C(N)=O)C2=O [Example 26]
3. CC(=O)N[C@H](Cc1ccc2ccccc2c1)C(=O)N[C@H](Cc1ccc(Cl)cc1)C(=O)N[C@H](Cc1cccnc1)C(=O)N[C@@H](CO)C(=O)N[C@@H](Cc1ccc(O)cc1)C(=O)N1CCC[C@@]12CCN([C@@H](CC(C)(C)C)C(=O)N[C@@H](CCCCNC(C)C)C(=O)N1CCC[C@H]1C(=O)N[C@H](C)C(N)=O)C2=O [Example 28]
4. CC(=O)N[C@H](Cc1ccc2ccccc2c1)C(=O)N[C@H](Cc1ccc(Cl)cc1)C(=O)N[C@H](Cc1cccnc1)C(=O)N[C@@H](CO)C(=O)N[C@@H](Cc1ccc(O)cc1)C(=O)N1CCC[C@@]12CCN([C@@H](CC(C)C)C(=O)N[C@@H](CCCNC(=N)N)C(=O)N1CCC[C@H]1C(=O)N[C@H](C)C(N)=O)C2=O [Example 23]

Key:
["9.77 nM", "0.263 nM", "0.309 nM", "0.155 nM"]
